Tested on: Proteus mirabilis 520
Experiment: In vitro antibacterial activity, two-fold agar-plate dilution method
Assay type: cell-based
Conditions: heart infusion agar, 37° C., 20 hours, 10^8 viable cells per ml, read-out: minimal inhibitory concentration (MIC)
Experimental: In vitro antibacterial activity was determined by the two-fold agar-plate dilution method as described below. One loopful of an overnight culture of each test strain in Trypticase-soy broth (10^8 viable cells per ml.) was streaked on heart infusion agar (HI-agar) containing graded concentrations of antibiotics, and the minimal inhibitory concentration (MIC) was expressed in terms of μg/ml. after incubation at 37° C. for 20 hours. [drawing 15]
MEASURE: MIC (µg/mL)

Nc1nc(C(=O)C(=O)NC2C(=O)N3C(C(=O)O)=CCSC23)cs1 (stereo not shown) [Compound 1]
0.78
Nc1nc(CC(=O)NC2C(=O)N3C(C(=O)O)=CCSC23)cs1 (stereo not shown) [Compound 2]
0.39

P = Nc1nc(C(N)C(=O)NC2C(=O)N3C(C(=O)O)=CCSC23)cs1 (stereo not shown) [Compound 3]
Q = Nc1nc(C(O)C(=O)NC2C(=O)N3C(C(=O)O)=CCSC23)cs1 (stereo not shown) [Compound 4]
Q: Consider entries P and Q . Which has the numerically lower MIC? To answer, give the label that identifies your chosen option.
Result: P
(P: 0.78 µg/mL, Q: 1.56 µg/mL)
